assay_comment: Drug-drug interaction study of HSK7653 with metformin, multiple doses, Chinese healthy volunteers (CTR20191549): pharmacokinetics
reported_conditions: human, in vivo, oral, Multiple dose (D1 35 mg; D8/D15/D22 25 mg) with metformin, fasted
metric: Cmax (ng/mL)

1) CS(=O)(=O)n1cc2c(n1)CN([C@@H]1C[C@H](N)[C@@H](c3cc(F)ccc3F)O[C@@H]1C(F)(F)F)C2; 533

----------
assay_comment: Bioavailability in rats (unpublished)
reported_conditions: rat, in vivo, oral
metric: bioavailability

1) CS(=O)(=O)n1cc2c(n1)CN([C@@H]1C[C@H](N)[C@@H](c3cc(F)ccc3F)O[C@@H]1C(F)(F)F)C2 [HSK7653]; 94.5%

----------
assay_comment: Single ascending dose clinical study in Chinese healthy volunteers (CTR20180791): pharmacokinetics
Assay type: in vivo, human
reported_conditions: human, in vivo, oral, 10 mg, 10 mg single dose, fasted, Chinese healthy volunteers
metric: AUC (ng·h/mL)

1. CS(=O)(=O)n1cc2c(n1)CN([C@@H]1C[C@H](N)[C@@H](c3cc(F)ccc3F)O[C@@H]1C(F)(F)F)C2; 17700

----------
assay_comment: in vitro
reported_conditions: human, primary human plated hepatocytes
metric: half-life at 0.05 μM

1. CS(=O)(=O)n1cc2c(n1)CN([C@@H]1C[C@H](N)[C@@H](c3cc(F)ccc3F)O[C@@H]1C(F)(F)F)C2; 12.2 days

----------
assay_comment: Blood-to-plasma partition ratio and fraction unbound in plasma
Type: in vitro ADME
reported_conditions: Measured (in vivo)
metric: fraction unbound

1) CS(=O)(=O)n1cc2c(n1)CN([C@@H]1C[C@H](N)[C@@H](c3cc(F)ccc3F)O[C@@H]1C(F)(F)F)C2; 0.143

----------
assay_comment: Equilibrium solubility of the HSK7653 API in various media
Assay type: physicochemical
reported_conditions: 37 °C, thermodynamic from solid; FaSSIF medium
metric: solubility at 24 h

1. CS(=O)(=O)n1cc2c(n1)CN([C@@H]1C[C@H](N)[C@@H](c3cc(F)ccc3F)O[C@@H]1C(F)(F)F)C2; ~342 µg/mL

----------
assay_comment: Drug-drug interaction study of HSK7653 with metformin, multiple doses, Chinese healthy volunteers (CTR20191549): pharmacokinetics
reported_conditions: human, in vivo, oral, Multiple dose (D1 35 mg; D8/D15/D22 25 mg) with metformin, fasted, read-out: CL Obs (converted)
metric: clearance (mL/min)

1. CS(=O)(=O)n1cc2c(n1)CN([C@@H]1C[C@H](N)[C@@H](c3cc(F)ccc3F)O[C@@H]1C(F)(F)F)C2; 9.17

----------
assay_comment: Apparent permeability in Caco-2 monolayer cell lines
Assay type: in vitro ADME
reported_conditions: human, Caco-2; 1 μM, 2 h, 37 °C
metric: Papp A→B at 2 h, 1 μM (×10⁻⁶ cm/s)

1. CS(=O)(=O)n1cc2c(n1)CN([C@@H]1C[C@H](N)[C@@H](c3cc(F)ccc3F)O[C@@H]1C(F)(F)F)C2; 25.3

----------
assay_comment: Apparent permeability in Caco-2 monolayer cell lines
Format: in vitro ADME
reported_conditions: human, Caco-2; 20 μM, 2 h, 37 °C
metric: Papp A→B at 2 h, 20 μM (×10⁻⁶ cm/s)

1. CS(=O)(=O)n1cc2c(n1)CN([C@@H]1C[C@H](N)[C@@H](c3cc(F)ccc3F)O[C@@H]1C(F)(F)F)C2; 40.3

----------
assay_comment: Single ascending dose clinical study in Chinese healthy volunteers (CTR20180791): pharmacokinetics
Type: in vivo, human
reported_conditions: human, in vivo, oral, 50 mg, 50 mg single dose, fed, Chinese healthy volunteers
metric: Cmax (ng/mL)

1) CS(=O)(=O)n1cc2c(n1)CN([C@@H]1C[C@H](N)[C@@H](c3cc(F)ccc3F)O[C@@H]1C(F)(F)F)C2; 834

----------
assay_comment: Apparent permeability in Caco-2 monolayer cell lines
Type: in vitro ADME
reported_conditions: human, Caco-2; average value of Papp at different incubation concentrations; apical pH: basolateral pH 7.4: 7.4; read-out: Caco-2 permeability, model input
metric: Papp at 2 h (×10⁻⁶ cm/s)

1. CS(=O)(=O)n1cc2c(n1)CN([C@@H]1C[C@H](N)[C@@H](c3cc(F)ccc3F)O[C@@H]1C(F)(F)F)C2; 31.6

----------
assay_comment: Single ascending dose clinical study in Chinese healthy volunteers (CTR20180791): pharmacokinetics
Format: in vivo, human
reported_conditions: human, in vivo, oral, 25 mg, 25 mg single dose, fasted, Chinese healthy volunteers; read-out: CL Obs (converted)
metric: clearance (mL/min)

1. CS(=O)(=O)n1cc2c(n1)CN([C@@H]1C[C@H](N)[C@@H](c3cc(F)ccc3F)O[C@@H]1C(F)(F)F)C2; 10.2

----------
assay_comment: Drug-drug interaction study of HSK7653 with metformin, multiple doses, Chinese healthy volunteers (CTR20191549): pharmacokinetics
reported_conditions: human, in vivo, oral, Multiple dose (D1 35 mg; D8/D15/D22 25 mg) with metformin, fasted, read-out: VZ/F Obs
metric: Vd/F

1) CS(=O)(=O)n1cc2c(n1)CN([C@@H]1C[C@H](N)[C@@H](c3cc(F)ccc3F)O[C@@H]1C(F)(F)F)C2; 1.08 L/kg

----------
assay_comment: Single ascending dose clinical study in Chinese healthy volunteers (CTR20180791): pharmacokinetics
Format: in vivo, human
reported_conditions: human, in vivo, oral, 25 mg, 25 mg single dose, fasted, Chinese healthy volunteers
metric: AUC

1. CS(=O)(=O)n1cc2c(n1)CN([C@@H]1C[C@H](N)[C@@H](c3cc(F)ccc3F)O[C@@H]1C(F)(F)F)C2; 40500 ng·h/mL

----------
assay_comment: Single ascending dose clinical study in Chinese healthy volunteers (CTR20180791): pharmacokinetics
Type: in vivo, human
reported_conditions: human, in vivo, oral, 50 mg, 50 mg single dose, fed, Chinese healthy volunteers; read-out: CL Obs (converted)
metric: clearance (mL/min)

1. CS(=O)(=O)n1cc2c(n1)CN([C@@H]1C[C@H](N)[C@@H](c3cc(F)ccc3F)O[C@@H]1C(F)(F)F)C2; 9.5

----------
assay_comment: Single ascending dose clinical study in Chinese healthy volunteers (CTR20180791): pharmacokinetics
Assay type: in vivo, human
reported_conditions: human, in vivo, oral, 150 mg, 150 mg single dose, fasted, Chinese healthy volunteers
metric: AUC (µg·h/mL)

1) CS(=O)(=O)n1cc2c(n1)CN([C@@H]1C[C@H](N)[C@@H](c3cc(F)ccc3F)O[C@@H]1C(F)(F)F)C2 [HSK7653]; 269

----------
assay_comment: physchem
metric: solubility (µg/mL)

1) CS(=O)(=O)n1cc2c(n1)CN([C@@H]1C[C@H](N)[C@@H](c3cc(F)ccc3F)O[C@@H]1C(F)(F)F)C2 [HSK7653]; 7

----------
assay_comment: Physicochemical parameters (log P, pKa) from experimental outcomes
reported_conditions: Monoprotic base; Measured (in vitro)
metric: pKa

1) CS(=O)(=O)n1cc2c(n1)CN([C@@H]1C[C@H](N)[C@@H](c3cc(F)ccc3F)O[C@@H]1C(F)(F)F)C2; 6.75

----------
assay_comment: Equilibrium solubility of the HSK7653 API in various media
Type: physicochemical
reported_conditions: 37 °C, fassgf or other biorelevant, thermodynamic from solid; FaSSGF medium
metric: solubility at 24 h

1) CS(=O)(=O)n1cc2c(n1)CN([C@@H]1C[C@H](N)[C@@H](c3cc(F)ccc3F)O[C@@H]1C(F)(F)F)C2; ~5310 µg/mL

----------
assay_comment: in vitro
reported_conditions: human, primary plated hepatocytes (cryopreserved, 10 donors mixed)
metric: hepatocyte CLint at 0.05 μM

1) CS(=O)(=O)n1cc2c(n1)CN([C@@H]1C[C@H](N)[C@@H](c3cc(F)ccc3F)O[C@@H]1C(F)(F)F)C2; 0.056 µL/min/1e6 cells

----------
assay_comment: Single ascending dose clinical study in Chinese healthy volunteers (CTR20180791): pharmacokinetics
Format: in vivo, human
reported_conditions: human, in vivo, oral, 100 mg, 100 mg single dose, fasted, Chinese healthy volunteers; read-out: CL Obs (converted)
metric: clearance (mL/min)

1. CS(=O)(=O)n1cc2c(n1)CN([C@@H]1C[C@H](N)[C@@H](c3cc(F)ccc3F)O[C@@H]1C(F)(F)F)C2; 8.33

----------
assay_comment: Single ascending dose clinical study in Chinese healthy volunteers (CTR20180791): pharmacokinetics
Format: in vivo, human
reported_conditions: human, in vivo, oral, 50 mg, 50 mg single dose, fasted, Chinese healthy volunteers; read-out: CL Obs (converted)
metric: clearance

1. CS(=O)(=O)n1cc2c(n1)CN([C@@H]1C[C@H](N)[C@@H](c3cc(F)ccc3F)O[C@@H]1C(F)(F)F)C2 [HSK7653]; 9.67 mL/min

----------
assay_comment: Single ascending dose clinical study in Chinese healthy volunteers (CTR20180791): pharmacokinetics
Format: in vivo, human
reported_conditions: human, in vivo, oral, 5 mg, 5 mg single dose, fasted, Chinese healthy volunteers
metric: Cmax (ng/mL)

1) CS(=O)(=O)n1cc2c(n1)CN([C@@H]1C[C@H](N)[C@@H](c3cc(F)ccc3F)O[C@@H]1C(F)(F)F)C2 [HSK7653]; 101
